target: human TREX2 (residues M44-A279) (Homo sapiens, UniProt Q9BQ50); construct: human TREX2 (residues M44-A279, expressed in E. coli); test: TREX2 Biochemical Assay (fluorescence, dsDNA substrate degradation); settings: 2.5 nM TREX2, 60 nM dsDNA substrate, 25 minutes at room temperature
Sequence (Q9BQ50 whole entry, the tested form may be a part): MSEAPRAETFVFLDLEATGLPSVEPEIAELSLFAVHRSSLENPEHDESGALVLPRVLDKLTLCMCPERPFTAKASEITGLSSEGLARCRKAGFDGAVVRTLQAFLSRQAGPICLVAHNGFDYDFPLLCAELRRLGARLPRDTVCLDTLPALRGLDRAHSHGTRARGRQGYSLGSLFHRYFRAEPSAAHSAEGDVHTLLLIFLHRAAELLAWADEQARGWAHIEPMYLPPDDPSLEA

structureString: CN(c1nc(C(=O)N[C@@H]2CCOC2)c(O)c(=O)n1C)C(c1ccccc1)c1ccccc1
measurementTarget: human TREX2 (residues M44-A279) (Homo sapiens, UniProt Q9BQ50)
IC50: 10 to 100 µM
//
structureString: CN(c1nc(C(=O)NC2COC2)c(O)c(=O)n1C)C(c1ccccc1)c1ccccc1
measurementTarget: human TREX2 (residues M44-A279) (Homo sapiens, UniProt Q9BQ50)
IC50: 10 to 100 µM
//
structureString: C=C(C)CNC(=O)c1nc(N(C)C(c2ccccc2)c2ccccc2)n(C)c(=O)c1O
measurementTarget: human TREX2 (residues M44-A279) (Homo sapiens, UniProt Q9BQ50)
IC50: 10 to 100 µM
//
structureString: CN(c1nc(C(=O)Nc2ccccc2)c(O)c(=O)n1C)C(c1ccccc1)c1ccccc1
measurementTarget: human TREX2 (residues M44-A279) (Homo sapiens, UniProt Q9BQ50)
IC50: < 1 µM
//
structureString: CN(c1nc(C(=O)NCCC(F)(F)F)c(O)c(=O)n1C)C(c1ccccc1)c1ccccc1
measurementTarget: human TREX2 (residues M44-A279) (Homo sapiens, UniProt Q9BQ50)
IC50: 10 to 100 µM

* * *

molecular target: full length human TREX1 (Homo sapiens, UniProt Q9NSU2); construct: N-terminally His-Tev tagged full length human TREX1; experiment: TREX1 Biochemical Assay (fluorescence, dsDNA substrate degradation); settings: 150 pM TREX1, 60 nM dsDNA substrate, 25 minutes at room temperature
Sequence (Q9NSU2 whole entry): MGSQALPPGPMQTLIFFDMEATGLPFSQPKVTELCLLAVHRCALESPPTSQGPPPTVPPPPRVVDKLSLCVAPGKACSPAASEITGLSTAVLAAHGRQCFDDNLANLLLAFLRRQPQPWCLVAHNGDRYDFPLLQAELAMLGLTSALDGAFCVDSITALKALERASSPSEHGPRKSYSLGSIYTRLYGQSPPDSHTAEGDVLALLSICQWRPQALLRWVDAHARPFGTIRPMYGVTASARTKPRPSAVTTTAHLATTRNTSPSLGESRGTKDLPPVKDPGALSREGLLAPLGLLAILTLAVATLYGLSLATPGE
pIC50: −log10 of the molar value.
measure: pIC50

compound: CN(c1nc(C(=O)Nc2cnnn2C)c(O)c(=O)n1C)C(c1ccccc1)c1ccccc1 [Example 34]
result: 5.00 to 6.00

compound: CN(c1nc(C(=O)NC2COC2)c(O)c(=O)n1C)C(c1ccccc1)c1ccccc1 [Example 9]
result: < 5.00

compound: CN(c1nc(C(=O)NCCC(F)(F)F)c(O)c(=O)n1C)C(c1ccccc1)c1ccccc1 [Example 13]
result: 6.00 to 7.00

compound: CN(c1nc(C(=O)Nc2cccc(C(F)(F)F)c2)c(O)c(=O)n1C)C(c1ccccc1)c1ccccc1 [Example 27]
result: < 5.00

compound: CN(c1nc(C(=O)NC2CCC2)c(O)c(=O)n1C)C(c1ccccc1)c1ccccc1 [Example 7]
result: 5.00 to 6.00

compound: C=C(C)CNC(=O)c1nc(N(C)C(c2ccccc2)c2ccccc2)n(C)c(=O)c1O [Example 5]
result: 5.00 to 6.00

compound: Cc1onc(NC(=O)c2nc(N(C)C(c3ccccc3)c3ccccc3)n(C)c(=O)c2O)c1C [Example 37]
result: 5.00 to 6.00

compound: CN(c1nc(C(=O)Nc2ccc(F)cc2)c(O)c(=O)n1C)[C@H](c1ccccc1)c1ccccc1Cl (stereo in doubt) [Example 29]
result: 6.00 to 7.00

compound: CN(c1nc(C(=O)Nc2cc(F)cc(F)c2)c(O)c(=O)n1C)C(c1ccccc1)c1ccccc1 [Example 21]
result: 6.00 to 7.00

compound: CN(c1nc(C(=O)Nc2cncc(F)c2)c(O)c(=O)n1C)C(c1ccccc1)c1ccccc1 [Example 24]
result: 6.00 to 7.00

compound: CN(c1nc(C(=O)Nc2nnco2)c(O)c(=O)n1C)C(c1ccccc1)c1ccccc1 [Example 38]
result: 5.00 to 6.00

compound: Cc1oncc1NC(=O)c1nc(N(C)C(c2ccccc2)c2ccccc2)n(C)c(=O)c1O [Example 36]
result: 6.00 to 7.00

compound: CN(c1nc(C(=O)Nc2cncnc2)c(O)c(=O)n1C)C(c1ccccc1)c1ccccc1 [Example 26]
result: 5.00 to 6.00

compound: C=CCNC(=O)c1nc(N(C)C(c2ccccc2)c2ccccc2)n(C)c(=O)c1O [Example 8]
result: 5.00 to 6.00

compound: CCNC(=O)c1nc(N(C)C(c2ccccc2)c2ccccc2)n(C)c(=O)c1O [Example 10]
result: 5.00 to 6.00

compound: CN(c1nc(C(=O)Nc2ccc(C(F)(F)F)cc2)c(O)c(=O)n1C)C(c1ccccc1)c1ccccc1 [Example 28]
result: < 5.00

compound: CN(c1nc(C(=O)Nc2ccccc2F)c(O)c(=O)n1C)C(c1ccccc1)c1ccccc1 [Example 17]
result: > 7.00
